# TEST: Determination of binding constants of inhibitor (NNIC) in Model B detergent, Suc-AAPF-pNA read-out
# Assay type: biochemical
# ASSAY_CONTEXT: Ki of variant with the mutation relative to variant without the mutation, <1.0 beneficial
# Description: Purified protease variants are pre-diluted to approximately 0.2 mg/ml in dilution buffer. […] 100 μl substrate solution is added and after 5 sec mixing absorbance at 405 nm is measured every 20 sec for 5 min on a SpectraMax Plus reader. Slope from linear regression of initial increase in absorbance at 405 nm is used for calculation of apparent binding constants. […] The Ki for the parent protease and for each variant was calculated as described above […] Ki were calculated as shown in Example 3. […]
ATTRIBUTE_MEASURED: Inhibitor-binding relative Kimutation, inhibitor binding in Model B
Form field (numeric): enter value without unit.

Please give the measured Inhibitor-binding relative Kimutation, inhibitor binding in Model B for this molecule: S173P, S175P, I178P, F180Y: TY145 protease (SEQ ID NO 3) variant with these substitutions (protein, listed as Bacillus sp.) AVPSTQTPWGIKSIYNDQSITKTTGGSGIKVAVLDTGVYTSHLDLAGSAEQCKDFTQSNPLVDGSCTDRQGHGTHVAGTVLAHGGSNGQGVYGVAPQAKLWAYKVLGDNGSGYSDDIAAAIRHVADEASRTGSKVVINMSLGSSAKDSLIASAVDYAYGKGVLIVAAAGNSGPGPNTPGYPGGLVNAVAVAALENVQQNGTYRVADFSSRGNPATAGDYIIQERDIEVSAPGASVESTWYTGGYNTISGTSMATPHVAGLAAKIWSANTSLSHSQLRTELQNRAKVYDIKGGIGAGTGDDYASGFGYPRVK
0.51
